target-under-test: MYC (Homo sapiens)
Construct: endogenous in cells; host or cells: PC3 cells
protocol-text: MYC protein level in PC3 cells by western blot, 24 hr
Assay type: cell-based
settings: PC-3, 24 h, PC3, 24 h, Actin control, read-out: Relative MYC protein at 10 μM (%, PC3 24 h)
Description: Table 2. Biological data of selected compounds. For IC50 determination. PC3 and PC12 cells were treated with increasing concentrations of the indicated compounds for 72 hrs and cell viability assessed using CellTitreGlo Assay (Promega). For MYC and ATF4 protein level determination. […] Quantification analyses were performed by Biorad ChemiDoc Imager and Bio-Rad Image Lab software.
Field 'label' (enum: Yes / No). Set to Yes when remaining activity at 10 µM is strictly under 50%; else No.

I wonder whether "Cn1nc(C(F)(F)F)cc1-c1ccc(O)c(-c2ccc(Cl)c(C(F)(F)F)c2)c1O" has remaining activity at 10 µM below 50%. Can you tell?
No

I wonder whether "Cn1nc(C(F)(F)F)cc1-c1cc(Cl)c(Oc2ccc(Cl)cc2)c(-c2ccc(Cl)c(C(F)(F)F)c2)c1O" has remaining activity at 10 µM below 50%. Can you tell?
Yes

I wonder whether CC(C)Cc1ccc(C(C)Oc2ccc(-c3cc(C(F)(F)F)cn3C)c(O)c2-c2ccc(Cl)c(C(F)(F)F)c2)cc1 (stereo not drawn) has remaining activity at 10 µM below 50%. Can you tell?
No

I wonder whether "Cn1nc(C(F)(F)F)cc1-c1ccc(Oc2ccc(Cl)cc2)c(-c2ccc(Cl)c(C(F)(F)F)c2)c1O" has remaining activity at 10 µM below 50%. Can you tell?
Yes

I wonder whether "Cn1nc(C(F)(F)F)c(Cl)c1-c1cc(Cl)c(COc2ccc(Cl)cc2)c(-c2ccc(Cl)c(C(F)(F)F)c2)c1O" has remaining activity at 10 µM below 50%. Can you tell?
Yes

I wonder whether "Cn1nc(C(F)(F)F)c(Cl)c1-c1ccc(COc2ccc(Cl)cc2)c(-c2ccc(Cl)c(C(F)(F)F)c2)c1O" has remaining activity at 10 µM below 50%. Can you tell?
Yes

* * *

Test system: PC12 cells
protocol-text: PC12 cell viability, CellTitreGlo Assay, 72 hrs
Format: cell-based
settings: Rattus norvegicus, PC-12
recorded-metric: pIC50
The value called pIC50 is obtained by taking minus log10 of the concentration in mol/L.

Entry "Cn1nc(C(F)(F)F)cc1-c1ccc(OCc2ccc(Cl)cc2)c(-c2ccc(Cl)c(C#N)c2)c1O" ; pIC50 = 4.87

Entry "Cn1nc(C(F)(F)F)cc1-c1cc(Cl)c(COc2ccc(Cl)cc2)c(-c2ccc(Cl)c(C(F)(F)F)c2)c1O" ; pIC50 = 4.98

Entry "C[C@@H](C(=O)N[C@H](C(=O)N1C[C@@H](NC(=O)COCCOCCNC(=O)CCOCCCN(C(=O)c2ccc(Cl)c(C(F)(F)F)c2)c2ccc(-c3cc(C(F)(F)F)nn3C)c(O)c2)C[C@H]1C(=O)N[C@@H]1CCCc2ccccc21)C1CCCCC1)N(C)C(=O)OC(C)(C)C" ; pIC50 = 4.95

* * *

System: ATF4
protocol-text: ATF4 protein level in PC3 cells by western blot, 24 hr
Type: cell-based
settings: Homo sapiens, PC-3, PC3, 24 h, Actin control, read-out: Relative ATF4 protein at 10 μM (fold change, PC3 24 h)
recorded-metric: fold induction at 10 µM
Just the number.

Entry COCCCN(C(=O)c1ccc(C(F)(F)F)c(Cl)c1)c1ccc(-c2cc(C(F)(F)F)nn2C)c(O)c1 [NUCC-0226267] ; fold induction at 10 µM = 8

Entry CC(C)Cc1ccc(CN(C(=O)c2ccc(Cl)c(C(F)(F)F)c2)c2ccc(-c3cc(C(F)(F)F)nn3C)c(O)c2)cc1 [NUCC-0226280] ; fold induction at 10 µM = 10.3

Entry CNc1c(Cl)cc(-c2cc(C(F)(F)F)nn2C)c(O)c1-c1ccc(Cl)c(C(F)(F)F)c1 [NUCC-0226529] ; fold induction at 10 µM = 2.4

Entry Cc1ncsc1-c1ccc(CNC(=O)[C@@H]2C[C@@H](O)CN2C(=O)[C@@H](NC(=O)CCCCCCCCNC(=O)CCOCCCN(C(=O)c2ccc(Cl)c(C(F)(F)F)c2)c2ccc(-c3cc(C(F)(F)F)nn3C)c(O)c2)C(C)(C)C)cc1 [NUCC-0226226] ; fold induction at 10 µM = 10.6

Entry Cn1nc(C(F)(F)F)cc1-c1ccc(-c2ccc(Cl)cc2)c(OCc2ccc(Cl)c(C(F)(F)F)c2)c1O [NUCC-0226652] ; fold induction at 10 µM = 5.2

Entry Cc1ccc([C@H](C)Oc2ccc(-c3cc(C(F)(F)F)nn3C)c(O)c2-c2ccc(Cl)c(C(F)(F)F)c2)cc1 [NUCC-0226435] ; fold induction at 10 µM = 4.7

Entry C[C@@H](C(=O)N[C@H](C(=O)N1C[C@@H](NC(=O)COCCOCCNC(=O)CCOCCCN(C(=O)c2ccc(Cl)c(C(F)(F)F)c2)c2ccc(-c3cc(C(F)(F)F)nn3C)c(O)c2)C[C@H]1C(=O)N[C@@H]1CCCc2ccccc21)C1CCCCC1)N(C)C(=O)OC(C)(C)C [NUCC-0226299] ; fold induction at 10 µM = 5.4

Entry Cn1nc(C(F)(F)F)cc1-c1c(F)cc(OCc2ccc(Cl)cc2)c(-c2ccc(Cl)c(C(F)(F)F)c2)c1O [NUCC-0226545] ; fold induction at 10 µM = 4.7

Entry Cn1nc(C(F)(F)F)cc1-c1ccnc(-c2ccc(Cl)c(C(F)(F)F)c2)c1O [NUCC-0226595] ; fold induction at 10 µM = 6.3

* * *

System: ATF4
protocol-text: ATF4 protein level in PC3 cells by western blot, 24 hr
Assay type: cell-based
settings: Homo sapiens, PC-3, PC3, 24 h, Actin control, read-out: Relative ATF4 protein at 10 μM (fold change, PC3 24 h)
recorded-metric: fold induction at 10 µM
Just the number.

Entry "Cn1nc(C(F)(F)F)cc1-c1ccc(O)c(-c2ccc(Cl)c(C(F)(F)F)c2)c1O" ; fold induction at 10 µM = 3.3

Entry "Cc1ncsc1-c1ccc(CNC(=O)[C@@H]2C[C@@H](O)CN2C(=O)[C@@H](NC(=O)C2(F)CC2)C(C)(C)C)c(OCCOCCOCCCCCOc2ccc(-c3cc(C(F)(F)F)nn3C)c(O)c2-c2ccc(Cl)c(C(F)(F)F)c2)c1" ; fold induction at 10 µM = 1.3

Entry "Cn1nc(C#N)cc1-c1cc(Cl)c(COc2ccc(Cl)cc2)c(-c2ccc(Cl)c(C(F)(F)F)c2)c1O" ; fold induction at 10 µM = 13.4

Entry "Cn1nc(C(F)(F)F)c(Cl)c1-c1cc(Cl)c(COc2ccc(Cl)cc2Cl)c(-c2ccc(Cl)c(C(F)(F)F)c2)c1O" ; fold induction at 10 µM = 15.1

Entry Cn1nc(C(F)(F)F)cc1-c1ccc(N(CCCOCCC(=O)NCCCCCCOc2cccc3c2C(=O)N(C2CCC(=O)NC2=O)C3=O)C(=O)c2ccc(Cl)c(C(F)(F)F)c2)cc1O (centres unmarked) ; fold induction at 10 µM = 16.4

* * *

Please respond with reported remaining activity at 10 µM for every item in the list.
target-under-test: MYC (Homo sapiens, UniProt P01106)
Construct: endogenous in cells; host or cells: PC3 cells
Sequence (P01106 whole entry): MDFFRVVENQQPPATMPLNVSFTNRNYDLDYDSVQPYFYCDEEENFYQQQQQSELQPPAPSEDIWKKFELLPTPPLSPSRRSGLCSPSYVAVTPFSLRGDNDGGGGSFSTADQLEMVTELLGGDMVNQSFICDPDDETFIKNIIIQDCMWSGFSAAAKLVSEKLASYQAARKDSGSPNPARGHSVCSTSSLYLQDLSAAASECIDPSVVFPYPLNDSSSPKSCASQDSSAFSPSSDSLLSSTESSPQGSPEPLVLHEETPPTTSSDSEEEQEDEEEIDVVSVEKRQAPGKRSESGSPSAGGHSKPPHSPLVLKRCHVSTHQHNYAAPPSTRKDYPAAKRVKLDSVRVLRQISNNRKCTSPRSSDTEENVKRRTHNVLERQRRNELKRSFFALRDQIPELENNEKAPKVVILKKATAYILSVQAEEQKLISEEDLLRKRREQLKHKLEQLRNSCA
protocol-text: MYC protein level in PC3 cells by western blot, 24 hr
Type: cell-based
settings: PC-3, 24 h, PC3, 24 h, Actin control, read-out: Relative MYC protein at 10 μM (%, PC3 24 h)
The answer is to be given in %; state only the numeric part.

Entry "Cn1nc(C(F)(F)F)c(Cl)c1-c1cc(Cl)c(COc2ccc(Cl)cc2Cl)c(-c2ccc(Cl)c(C(F)(F)F)c2)c1O" ; remaining activity at 10 µM = 34.5

Entry "Cc1ccc([C@@H](C)Oc2ccc(-c3cc(C(F)(F)F)nn3C)c(O)c2-c2ccc(Cl)c(C(F)(F)F)c2)cc1" ; remaining activity at 10 µM = 30.3

Entry "Cn1nc(C(F)(F)F)cc1-c1cc(Cl)c(COc2ccc(Cl)cc2)c(-c2ccc(Cl)c(C(F)(F)F)c2)c1O" ; remaining activity at 10 µM = 34.7

Entry "CC(C)Cc1ccc(COc2ccc(-c3cc(C(F)(F)F)nn3C)c(O)c2-c2ccc(Cl)c(C(F)(F)F)c2)cc1" ; remaining activity at 10 µM = 52.4

Entry Cn1nc(C(F)(F)F)cc1-c1ccc(OCc2ccc(OCCOCCNc3cccc4c3C(=O)N(C3CCC(=O)NC3=O)C4=O)cc2)c(-c2ccc(Cl)c(C(F)(F)F)c2)c1O (centres unmarked) ; remaining activity at 10 µM = 48.5

Entry Cn1nc(C(F)(F)F)cc1-c1cc2c(c(-c3ccc(Cl)c(C(F)(F)F)c3)c1O)OC(c1ccc(Cl)cc1)CC2 (centres unmarked) ; remaining activity at 10 µM = 62.9

Entry "C[C@@H](C(=O)N[C@H](C(=O)N1C[C@@H](NC(=O)COCCOCCNC(=O)CCOCCCN(C(=O)c2ccc(Cl)c(C(F)(F)F)c2)c2ccc(-c3cc(C(F)(F)F)nn3C)c(O)c2)C[C@H]1C(=O)N[C@@H]1CCCc2ccccc21)C1CCCCC1)N(C)C(=O)OC(C)(C)C" ; remaining activity at 10 µM = 42.1

Entry "Cn1cncc1-c1ccc(OCc2ccc(Cl)cc2)c(-c2ccc(Cl)c(C(F)(F)F)c2)c1O" ; remaining activity at 10 µM = 94.4

Measured values drawn from patent US20260035360A1 for this set.
